Each entry below carries its reported Organ Mean Total Flux Spleen.
System: mouse organs
protocol.description: In vivo activity screening in mice: organ mean total flux (p/s) of luciferase activity after injection of F2 LNP pools (Table 6, FIG. 7A-7C)
test.context: Mouse 2, dose 1.0 mg/kg, luciferase mRNA
Marks after values point to notes of the source that are not given here.

compound | Organ Mean Total Flux Spleen
CCCCC/C=C\CCOC(=O)CCCCCC(=O)OCC(COC(=O)CCCCCCOC(=O)C(CCCC)CCCCCC)(COC(=O)CCCCCCOC(=O)C(CCCC)CCCCCC)COC(=O)CCC(CCCCCC)OC(=O)NCCN1CCCC1 (centres unmarked) | 5.5 p/s (×10^6)
CCCCC/C=C\CCOC(=O)CCCCCC(=O)OCC(COC(=O)CCCCC)(COC(=O)CCCCCC(=O)OCC/C=C\CCCCC)COC(=O)CCC(CCCCCC)OC(=O)NCCN1CCCC1 (centres unmarked) | 367.7 p/s (×10^6)
CCCCC/C=C\CCOC(=O)CCCCC(=O)OCC(COC(=O)CCCCC(=O)OCC/C=C\CCCCC)(COC(=O)CCC(CCCCCC)OC(=O)NCCN1CCCC1)COC(=O)CC12CC3CC(CC(C3)C1)C2 (centres unmarked) | 107.0 p/s (×10^6)
CCCCC/C=C\CCOC(=O)CCCCC(=O)OCC(COC(=O)CCCCC(=O)OCC/C=C\CCCCC)(COC(=O)CCC(CCCC)CCOC(=O)NCCN1CCCC1)COC(=O)CC12CC3CC(CC(C3)C1)C2 (centres unmarked) | 85.1 p/s (×10^6)
CCCCC/C=C\C/C=C\CCCCCCCCC(CCCCCCCC/C=C\C/C=C\CCCCC)OC(=O)CCCN(C)C [MC3, reference compound] | 23.0 p/s (×10^6)
